These data points were gathered from patent US20110020379A1.

experimentalTarget: unrelated control antibody
test: phage ELISA, 10^8 phagemid per well, wells coated with control mAb
Positions of bridges follow the written chain, without caps; N, C: chain ends. No end group written: not given here.
Would you kindly list ELISA (absorbance units) (absorbance units) for each of these binders?
One number for each entry.

>>> numericresult("CSFFYSLCYCWCS (disulfide (positions not given here); also: disulfide cyclised, pairing of the four Cys not given here) [phagemid CS1-31p]")
0.116
>>> numericresult("CSFRYQWDMFRCS (disulfide 1-12 (inferred)) [phagemid CS1-11p]")
0.252
>>> numericresult("CSGLYPWDMFRCS (disulfide 1-12 (inferred)) [phagemid CS1-9p]")
0.209
>>> numericresult("CSLFYLWDQDRCS (disulfide 1-12 (inferred)) [phagemid CS1-2p]")
0.188
>>> numericresult("CSFRYLWDQDRCS (disulfide 1-12 (inferred)) [phagemid CS1-6p]")
0.173

Next item in the queue.
Lab note: CSGLYPWDYFMCS (disulfide 1-12 (inferred)) [phagemid CS1-29p] gave ELISA (absorbance units) (absorbance units) of 0.125
